Data origin: BigSolDB 2.1

# recordedConditions: in 1,2-dichloroethane, 303.15 K
testReadout: solubility (mole fraction)
Give the figure only, with no unit attached.

// returns reported solubility (mole fraction) for input O=[N+]([O-])c1c(Cl)cc(Cl)c([N+](=O)[O-])c1Cl 0.108

====

# recordedConditions: in acetonitrile, 303.15 K
testReadout: solubility (mole fraction)
Give the figure only, with no unit attached.

// returns reported solubility (mole fraction) for input O=[N+]([O-])c1c(Cl)cc(Cl)c([N+](=O)[O-])c1Cl 0.0531

====

# recordedConditions: in 1,2-dichloroethane, 283.15 K
testReadout: solubility (mole fraction)
Give the figure only, with no unit attached.

// returns reported solubility (mole fraction) for input O=[N+]([O-])c1c(Cl)cc(Cl)c([N+](=O)[O-])c1Cl 0.0636
